Kindly state IC50 for each of the entries shown.
Target: Hsp90α (Homo sapiens, UniProt P07900)
Test: biochemical
Details: FP competition, 6 nM Cy3B-GM, 10 nM protein, 4° C. for 24 h

For the 2 molecules below, give their IC50 values.
1. Nc1ncnc2c1nc(Sc1cc(Cl)cc(Cl)c1)n2Cc1ccccc1 [PDP-107A]
2. COc1cc(Cc2nc3c(N)ncnc3n2C(C)C)cc(OC)c1OC

> 100 µM
> 500 µM

For the 2 molecules below, give their IC50 values.
1. C#CCCCn1cnc(N)c2nc(Sc3cn(Cc4ccc(OC)cc4)c4ncc(Br)cc34)nc1-2
2. CC(C)NCCCn1c(Sc2cc(Cl)cc(Cl)c2)nc2c(N)nccc21

["> 50 µM", "> 50 µM"]

I would be grateful if you could share the reported IC50 for N#CCCCn1c(Sc2cc(Cl)cc(Cl)c2)nc2c(N)ncnc21 [PDP-93A] .
> 50 µM

* * *

Kindly state pIC50 for each of the entries shown.
Biological target: Hsp90α (Homo sapiens, UniProt P07900)
Test: biochemical
Conditions: FP competition, 6 nM Cy3B-GM, 10 nM protein, 4° C. for 24 h
One number for each entry, as −log10 of the molar value.

For the 3 molecules below, give their pIC50 values.
1. C#CCCCn1c(Sc2ccc(OC)cc2OC)nc2c(N)ncnc21
2. C#CCCCn1c(Sc2cc(C#N)cc(C#N)c2)nc2c(N)ncnc21
3. C#CCCCn1c(Sc2ccc(Cl)c(Cl)c2)nc2c(N)ncnc21

4.32
4.22
5.32

* * *

Kindly state pIC50 for each of the entries shown.
Target: Hsp90α (Homo sapiens, UniProt P07900)
Details: read-out: Hsp90α; FP competition, 6 nM Cy3B-GM, 10 nM protein, 4° C. for 24 h
Answers are plain numbers, as −log10 of the molar value.

Take a look at these entries with their results.
{"SMILES_INPUT": "C#CCCCn1c(Sc2cc(Cl)ccc2Cl)nc2c(N)ncnc21", "STUDY_TARGET": "Hsp90α (Homo sapiens, UniProt P07900)", "QUANTITY_KIND": "pIC50", "RECORDED_MEASUREMENT": 4.22}
{"SMILES_INPUT": "CC(C)NCCCn1c(Sc2ccc(Cl)cc2Cl)nc2c(N)ncnc21", "STUDY_TARGET": "Hsp90α (Homo sapiens, UniProt P07900)", "QUANTITY_KIND": "pIC50", "RECORDED_MEASUREMENT": 4.69}

I would be grateful if you could share the reported pIC50 for `CC(C)NCCCn1c(Sc2cc(Cl)cc(Cl)c2)nc2c(N)ncnc21` .
4.56

* * *

Biological target: Trap-1 (Homo sapiens, UniProt Q12931)
Sequence (Q12931 60-704): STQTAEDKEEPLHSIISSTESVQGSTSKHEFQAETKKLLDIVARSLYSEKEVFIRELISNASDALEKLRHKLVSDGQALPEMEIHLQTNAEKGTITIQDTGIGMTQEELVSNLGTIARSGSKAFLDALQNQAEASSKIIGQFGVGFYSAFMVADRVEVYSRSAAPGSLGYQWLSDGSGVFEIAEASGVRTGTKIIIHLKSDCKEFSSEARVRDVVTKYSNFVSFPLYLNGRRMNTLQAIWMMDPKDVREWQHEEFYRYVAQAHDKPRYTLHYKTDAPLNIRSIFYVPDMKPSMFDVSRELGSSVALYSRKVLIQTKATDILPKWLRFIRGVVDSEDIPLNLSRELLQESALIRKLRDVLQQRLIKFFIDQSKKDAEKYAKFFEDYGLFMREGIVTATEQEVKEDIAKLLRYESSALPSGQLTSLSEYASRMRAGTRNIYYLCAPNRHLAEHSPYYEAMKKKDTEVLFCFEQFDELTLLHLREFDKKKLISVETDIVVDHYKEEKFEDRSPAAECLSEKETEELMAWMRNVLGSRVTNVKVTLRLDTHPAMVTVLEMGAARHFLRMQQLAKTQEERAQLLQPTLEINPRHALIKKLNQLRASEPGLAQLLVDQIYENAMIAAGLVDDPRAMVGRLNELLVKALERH
Assay: biochemical
Kindly state IC50 for each of the entries shown.

Take a look at these entries with their results.
{"COMPOUND": "C#CCCCn1c(Sc2ccc(Cl)c(Cl)c2)nc2c(N)ncnc21 [PDP-I-25-N9]", "IC50": "2.35 µM"}
{"COMPOUND": "C#CCCCn1c(Sc2cc(Cl)cc3c(Cl)ccnc23)nc2c(N)ncnc21 [PDP-I-79-N9]", "IC50": "> 100 µM"}
{"COMPOUND": "COc1cc(Cc2nc3c(N)ncnc3n2C(C)C)cc(OC)c1OC [PU-27]", "IC50": "> 300 µM"}
{"COMPOUND": "C#CCCCn1c(Sc2ccc(Br)cc2Cl)nc2c(N)ncnc21 [PDP-I-61-N9]", "IC50": "2.62 µM"}
{"COMPOUND": "C#CCCCn1c(Sc2cc(Cl)cc(Br)c2)nc2c(N)ncnc21 [PDP-I-53-N9]", "IC50": "> 100 µM"}
{"COMPOUND": "CC(Br)CCCn1c(Sc2cc(Cl)cc(Cl)c2)nc2c(N)ncnc21 (stereo not shown) [PDP-99A]", "IC50": "> 100 µM"}
{"COMPOUND": "Nc1ncnc2c1nc(Sc1cc(Cl)cc(Cl)c1)n2CCCCC(F)(F)F [PDP-109A]", "IC50": "> 100 µM"}
{"COMPOUND": "Nc1ncn(CCCCC(F)(F)F)c2nc(Sc3cc(Cl)cc(Cl)c3)nc1-2 [PDP-109B]", "IC50": "> 100 µM"}
{"COMPOUND": "C#CCCCn1cnc(N)c2nc(Sc3cc(Cl)cc(Cl)c3Cl)nc1-2 [PDP-125B]", "IC50": "58.8 µM"}
{"COMPOUND": "CCC[C@H](C)n1c(Cc2cc(OC)c(OC)c(OC)c2)nc2c(N)ncnc21 [PU-34]", "IC50": "227 µM"}

For the 6 compounds below, give their IC50 values.
1. CC#CCn1cnc(N)c2nc(Sc3cc(Cl)cc(Cl)c3)nc1-2 [PDP-102B]
2. C#CCCCn1c(Sc2cccc(Cl)c2Cl)nc2c(N)ncnc21 [PDP-119A]
3. C#CCCCn1c(Sc2cc(Br)cc(Br)c2)nc2c(N)ncnc21 [PDP-I-59-N9]
4. C#CCCCn1c(Sc2cc(Cl)c(Cl)c(Cl)c2)nc2c(N)ncnc21 [PDP-121]
5. C#CCCCCn1c(Sc2cc(Cl)cc(Cl)c2)nc2c(N)ncnc21 [PDP-112A]
6. Nc1ncnc2c1nc(Sc1cc(Cl)cc(Cl)c1)n2CCc1ccccc1 [PDP-127]

> 25 µM
> 100 µM
> 100 µM
2.2 µM
> 100 µM
> 100 µM
